test: logP (neutral / acidic, pH 2.3); details: pH 2.3
Binary label based on logP with cut-off 2: below gives class 1, not below gives class 0.

CCN(C)C=Nc1cc(C)c(/C(C)=N/OCC(C)C)cc1C; class 0
CCN(C)C=Nc1cc(C)c(/C=N/OCCC(C)(C)C)cc1C; class 0
CCN(C)C=Nc1cc(C)c(/C=N/OCC2CC2)cc1C; class 1

Turning now to a further compound:
Consider "CCN(C)C=Nc1cc(C)c(/C(C)=N/Nc2ccccc2F)cc1C" . Does its logP lie strictly below 2?
class 1

* * *

test: logP (neutral / acidic, pH 2.3)
Listed here are compounds together with their documented logP.
Form field (numeric): enter value without unit.

Solved entries:
CCN(C)C=Nc1cc(C)c(/C=N/OC(C)(C)C)cc1C; 4.98
CCN(C)C=Nc1cc(C)c(/C(C)=N/OCOCCOC)cc1C; 3.05
CCN(C)C=Nc1cc(C)c(/C(C)=N/OCc2nc(-c3ccccc3)cs2)cc1C; 5.1

"CCN(C)C=Nc1cc(C)c(/C(C)=N/OCCOc2cccc(C(F)(F)F)c2)cc1C" has a reported logP of 5.28

Value of measured logP for the entry "CCN(C)C=Nc1cc(C)c(/C(C)=N/OCCc2ccc(Cl)cc2)cc1C" : 5.55
